Listed here are binders together with their documented Kd.
# Target: T1, Recombinant MBP-mutCALR Type 1 fusion protein (human)
# T1 construct: custom made at Cepter; also called recombinant mutCALR protein
# Assay notes: SPR, IgG captured, 1:1 fit, Exp. 1
Measured property: Kd (nM)

[[record]]
binder = "anti-mutCALR antibody clone 30 (antibody, human IgG1, lambda, V domains shown, human IgG1) VH: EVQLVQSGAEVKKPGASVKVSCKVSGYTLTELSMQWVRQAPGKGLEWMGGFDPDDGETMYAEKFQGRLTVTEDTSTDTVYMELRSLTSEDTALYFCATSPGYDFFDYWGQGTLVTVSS VL: SYVLTQPPSVSVAPGKTATITCGGNNIGTKSVHWYQQKPGQAPVLVVYDDSDRPSGIPERFSGSNSGNTATLTINRVEAGDEADYYCQVWDSSNDLLIFGGGTKLTVLG"
endpoint_value = 12.8

[[record]]
binder = "anti-mutCALR antibody clone 2 (antibody, human IgG1, lambda, V domains shown, human IgG1) VH: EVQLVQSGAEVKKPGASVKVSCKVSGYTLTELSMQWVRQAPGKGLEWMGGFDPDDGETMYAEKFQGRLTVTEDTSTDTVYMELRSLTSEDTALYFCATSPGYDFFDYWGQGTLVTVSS VL: SYELTQPPSVSVAPGKTARITCGGDNIGSKSVHWYQQKPGQAPVLVVYDDSDRPSGIPERFSGSNSGNTATLTISRVEAGDEADYYCQVWDSSIDHLIFGGGTKVTVLG"
endpoint_value = 7.58

[[record]]
binder = "anti-mutCALR antibody clone 22 (antibody, human IgG1, lambda, V domains shown, human IgG1) VH: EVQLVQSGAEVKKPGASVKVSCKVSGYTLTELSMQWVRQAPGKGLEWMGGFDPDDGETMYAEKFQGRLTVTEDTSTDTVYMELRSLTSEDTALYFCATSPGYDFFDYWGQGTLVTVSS VL: SYVLTQPPSVSVAPGKTARITCGGNNIGSKNVHWYQQKPGQAPVLVVYDDSDRPSGIPERFSGSNSGNTATLTINRVEAGDEADYYCQVWDSSNDLLIFGGGTKLTVLG"
endpoint_value = 12.6

[[record]]
binder = "anti-mutCALR antibody clone 41 (antibody, human IgG1, lambda, V domains shown, human IgG1) VH: EVQLVQSGAEVKKPGASVKVSCKVSGYTLTELSMHWVRQAPGKGLEWMGLVDPEDGETIYAQKFQGRVTMTEDTSTDTAYMELSSLRSEDTAVYYCAREEWSGDGDDAFDIWGQGTMVTVSS VL: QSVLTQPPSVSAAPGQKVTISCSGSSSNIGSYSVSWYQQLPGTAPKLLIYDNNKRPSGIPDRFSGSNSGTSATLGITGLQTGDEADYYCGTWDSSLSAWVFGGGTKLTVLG"
endpoint_value = 4.88

[[record]]
binder = "anti-mutCALR antibody clone 26 (antibody, human IgG1, lambda, V domains shown, human IgG1) VH: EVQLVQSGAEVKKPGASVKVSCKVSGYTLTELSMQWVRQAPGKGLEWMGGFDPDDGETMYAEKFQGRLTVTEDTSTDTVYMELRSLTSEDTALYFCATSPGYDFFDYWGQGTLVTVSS VL: SYVLTQPPSVSVAPGQTARITCGGNNIGSKSVHWYQQKPGQAPVLVVYDDSDRPSGIPERFSGSNSGNTATLTISRVEAGDEADYYCQVWDSSIDHLIFGGGTKVTVLG"
endpoint_value = 9.84


Every entry's value here was drawn from patent US20230272055A1.
